Target: T1, extracellular domain of rhesus monkey BCMA (rhesus monkey, UniProt F7FFA0 1-53)
T1 construct: extracellular domain; also called RhBCMA
T1 sequence (F7FFA0 entry or part of it): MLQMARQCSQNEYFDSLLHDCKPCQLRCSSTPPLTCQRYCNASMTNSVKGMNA
Test: Octet BLI; Fab 200 nM
quantity-kind: pKd
Remember, pKd is on a log scale: it is -log10 of the molar concentration.

Form field: reported pKd of AB200-R1a-Fab_Vk23 (Fab, V domains shown) VH: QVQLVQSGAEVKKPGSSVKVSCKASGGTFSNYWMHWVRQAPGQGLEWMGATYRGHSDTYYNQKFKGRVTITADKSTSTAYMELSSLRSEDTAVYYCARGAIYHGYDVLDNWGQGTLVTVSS VL: DIQMTQSPSSLSASVGDRVTITCSASQDISNYLNWYQQKPGKAPKLLIYYTSNIHSGVPSRFSGSGSGTDFTLTISSLQPEDFATYYCQQYKKMPWTFGQGTKLEIKR 7.53
